assay_protocol: LNP size and polydispersity index by Malvern Zetasizer dynamic light scattering (CA HA modFlu mRNA LNPs)
Assay type: physicochemical
setup_conditions: LNP with CA HA modFlu mRNA; DLS
property_measured: PDI

[[record]]
molecule = "CCCCCCCCC(CCCCCC)CC(=O)OCC(COC(=O)CC(CCCCCC)CCCCCCCC)N1CCC2(CCN(CCCCO)CC2)CC1 (stereo not shown)"
measurement = 0.025

[[record]]
molecule = "CCCCCCCC(CCCCCCC)C(=O)OCC(COC(=O)C(CCCCCCC)CCCCCCC)N1CC2(CCN(CCCCCO)CC2)C1"
measurement = 0.060

[[record]]
molecule = "CCCCCCCCC(CC1CCC1)C(=O)OCC(COC(=O)C(CCCCCCCC)CC1CCC1)N1CCC2(CCN(CCCCO)CC2)CC1 (stereo not shown)"
measurement = 0.030

[[record]]
molecule = "CCCCCCCC(CCCCCCC)C(=O)OCC(COC(=O)C(CCCCCCC)CCCCCCC)N1CCC2(CCN(CCCCCO)CC2)CC1"
measurement = 0.040

[[record]]
molecule = "CCCCCCCCC(CCCCCC)C(=O)OCC(COC(=O)C(CCCCCC)CCCCCCCC)N1CCC2(CCN(CCCCO)C2)CC1 (stereo not shown)"
measurement = 0.080

[[record]]
molecule = "CCCCCCCCC(CCCCCC)C(=O)OCC(COC(=O)C(CCCCCC)CCCCCCCC)N1CCC2(CCN(CCCCCO)CC2)CC1 (stereo not shown)"
measurement = 0.040

[[record]]
molecule = "CCCCCCCC(CCCCCCC)C(=O)OCC(COC(=O)C(CCCCCCC)CCCCCCC)N1CCC2(CCN(CCCNc3c(NC)c(=O)c3=O)CC2)CC1"
measurement = 0.101

[[record]]
molecule = "CCCCCCCCC(CCCCCC)C(=O)OCC(COC(=O)C(CCCCCC)CCCCCCCC)N1CCC2(CCN(CCCNS(=O)(=O)CC)CC2)CC1 (stereo not shown)"
measurement = 0.080

[[record]]
molecule = "CCCCCCCCC(CCCCCC)C(=O)OCC(COC(=O)C(CCCCCC)CCCCCCCC)N1CCC2(CCN(CCCNC(=O)C3(C)CC3)CC2)CC1 (stereo not shown)"
measurement = 0.070

[[record]]
molecule = "CCCCCCCC(CCCCCCC)C(=O)O[C@@H]1CC2(CCN(CCO)CC2)C[C@H]1OC(=O)C(CCCCCCC)CCCCCCC (racemic)"
measurement = 0.088

[[record]]
molecule = "CCCCCCCC(CCCCCCC)OC(=O)CCCCCC(=O)O[C@@H]1CC2(CCN(CCCCO)CC2)C[C@H]1OC(=O)CCCCCC(=O)OC(CCCCCCC)CCCCCCC (racemic)"
measurement = 0.060

[[record]]
molecule = "CCCCCCCC(CCCCCCC)C(=O)OCC(COC(=O)C(CCCCCCC)CCCCCCC)N1CCC2(CC1)CN(CCCCO)C2"
measurement = 0.073

[[record]]
molecule = "CCCCCCCC(CCCCCCC)C(=O)O[C@@H]1CC2(CCN(CCCO)CC2)C[C@H]1OC(=O)C(CCCCCCC)CCCCCCC (racemic)"
measurement = 0.101


* * *

assay_protocol: LNP size and size distribution by dynamic light scattering (WISC HA modFlu mRNA LNPs)
Type: physicochemical
setup_conditions: LNP of the ionizable lipid:cholesterol:DSPC:PEG-Lipid about 46.3:42.7:9.4:1.6 with WISC HA modFlu mRNA; DLS
Below, each of the compounds is paired with its reported Size (nm) value.
property_measured: Size (nm)

[[record]]
compound = "CCCCCCCC(CCCCCCC)C(=O)OCC(COC(=O)C(CCCCCCC)CCCCCCC)N1CCC2(CCN(CCCCO)CC2)CC1 [Example 3]"
property_measured = "Size (nm)"
measurement = 152

[[record]]
compound = "CCCCCCCC(CCCCCCC)C(=O)OCC(COC(=O)C(CCCCCCC)CCCCCCC)C1CCC2(CC1)CCN(CCCCO)CC2 [Example 2]"
property_measured = "Size (nm)"
measurement = 93

[[record]]
compound = "CCCCCCCC(CCCCCCC)C(=O)OCC1(COC(=O)C(CCCCCCC)CCCCCCC)CCC2(CCN(CCCCO)CC2)CC1 [Example 1]"
property_measured = "Size (nm)"
measurement = 76

[[record]]
compound = "CCCCCCCC(CCCCCCC)C(=O)O[C@@H]1CC2(CCN(CCCCO)CC2)C[C@H]1OC(=O)C(CCCCCCC)CCCCCCC (racemic) [Example 51]"
property_measured = "Size (nm)"
measurement = 72

